Target: acetylcholinesterase enzyme from electric eel (Electrophorus electricus)
Construct: purchased Sigma-Aldrich CAS Number 9000-81-1 (catalogue number not given)
Sequence (O42275 24-633): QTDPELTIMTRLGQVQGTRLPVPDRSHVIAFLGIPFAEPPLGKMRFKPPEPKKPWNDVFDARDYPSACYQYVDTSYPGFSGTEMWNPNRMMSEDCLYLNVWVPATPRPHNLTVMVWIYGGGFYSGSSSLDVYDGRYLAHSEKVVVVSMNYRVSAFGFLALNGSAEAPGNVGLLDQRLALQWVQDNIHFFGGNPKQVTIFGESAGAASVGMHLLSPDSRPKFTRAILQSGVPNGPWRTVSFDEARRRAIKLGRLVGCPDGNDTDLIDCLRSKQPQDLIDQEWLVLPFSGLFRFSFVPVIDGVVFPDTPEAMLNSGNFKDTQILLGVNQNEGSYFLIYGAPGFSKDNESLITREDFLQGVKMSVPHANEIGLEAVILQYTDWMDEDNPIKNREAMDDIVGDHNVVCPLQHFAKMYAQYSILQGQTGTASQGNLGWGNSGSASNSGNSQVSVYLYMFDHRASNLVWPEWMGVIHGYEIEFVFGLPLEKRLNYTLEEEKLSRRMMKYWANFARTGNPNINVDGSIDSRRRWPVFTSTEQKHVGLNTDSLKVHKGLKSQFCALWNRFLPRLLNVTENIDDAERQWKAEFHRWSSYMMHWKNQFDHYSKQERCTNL
Assay: Acetylcholinesterase (AChE) inhibitory assay (DTNB/acetylthiocholine iodide, absorbance at 412 nm)
Assay type: biochemical
Conditions: Conc 50 ug/ml
QUANTITY_NAME: inhibition at 50 µg/mL (%)

* O=C(c1ccc(Br)cc1)C1C(c2cc3ccccc3s2)C2CSCN2[C@@]12C(=O)Nc1ccc(Cl)cc12 (stereo partly drawn) | 64.9
* O=C(c1ccc(Cl)cc1)C1C(c2cc3ccccc3s2)C2C3CCCCC3CN2[C@@]12C(=O)Nc1ccc(Cl)cc12 (stereo partly drawn) | 63.1
* O=C(c1ccc(C(F)(F)F)cc1)C1C(c2cc3ccccc3s2)C2C3CCCCC3CN2[C@@]12C(=O)Nc1ccc(Cl)cc12 (stereo partly drawn) | 57.3
* O=C(c1ccccc1)C1C(c2cc3ccccc3s2)C2CSCN2[C@@]12C(=O)Nc1ccc(Cl)cc12 (stereo partly drawn) | 50.4
* O=C(c1ccc(F)cc1)C1C(c2cc3ccccc3s2)C2CSCN2[C@@]12C(=O)Nc1ccc(Cl)cc12 (stereo partly drawn) | 68.3
* O=C(c1ccc(Cl)cc1)C1C(c2cc3ccccc3s2)C2CSCN2[C@@]12C(=O)Nc1ccc(Cl)cc12 (stereo partly drawn) | 64

---

Target: acetylcholinesterase enzyme from electric eel (Electrophorus electricus)
Construct: purchased Sigma-Aldrich CAS Number 9000-81-1 (catalogue number not given)
Experiment: Acetylcholinesterase (AChE) inhibitory assay (DTNB/acetylthiocholine iodide, absorbance at 412 nm)
Assay type: biochemical
Details: Conc 25 ug/ml
QUANTITY_NAME: inhibition at 25 µg/mL (%)

* O=C(c1ccc(C(F)(F)F)cc1)C1C(c2cc3ccccc3s2)C2CSCN2[C@@]12C(=O)Nc1ccccc12 (stereo partly shown) [IIj] | 41
* O=C(c1ccc(Cl)cc1)C1C(c2cc3ccccc3s2)C2C3CCCCC3CN2[C@@]12C(=O)Nc1ccc(Cl)cc12 (stereo partly shown) [IIf] | 53
* O=C(c1ccc(Cl)cc1)C1C(c2cc3ccccc3s2)C2CSCN2[C@@]12C(=O)Nc1ccccc12 (stereo partly shown) [IIe] | 50.5
* O=C(c1ccc(Br)cc1)C1C(c2cc3ccccc3s2)C2C3CCCCC3CN2[C@@]12C(=O)Nc1ccc(Cl)cc12 (stereo partly shown) [IIn] | 50.1
